Assay: in vivo
Settings: Swiss Webster, mouse, blood and plasma, sc, 0.1 mg/kg
Description: Ratio of drug level in Swiss Webster mouse blood to plasma at 0.1 mg/kg, sc measured after 10 mins by LC-MS/MS analysis
ASSAY METRIC: blood plasma ratio at 10 min

INSERT INTO results (cpd_smiles, assay_metric, readout_value) VALUES
  ('CN(C(=O)/C=C/c1ccco1)[C@@H]1CC[C@@]2(O)[C@H]3Cc4ccc(O)c5c4[C@@]2(CCN3CC2CC2)[C@H]1O5.Cl', 'blood plasma ratio at 10 min', 0.762);

* * *

pKd: −log10 of the molar value.
Parameter pKd, tested on Mu-type opioid receptor (Mus musculus, UniProt P42866), listed per item.
Sequence (P42866 whole entry): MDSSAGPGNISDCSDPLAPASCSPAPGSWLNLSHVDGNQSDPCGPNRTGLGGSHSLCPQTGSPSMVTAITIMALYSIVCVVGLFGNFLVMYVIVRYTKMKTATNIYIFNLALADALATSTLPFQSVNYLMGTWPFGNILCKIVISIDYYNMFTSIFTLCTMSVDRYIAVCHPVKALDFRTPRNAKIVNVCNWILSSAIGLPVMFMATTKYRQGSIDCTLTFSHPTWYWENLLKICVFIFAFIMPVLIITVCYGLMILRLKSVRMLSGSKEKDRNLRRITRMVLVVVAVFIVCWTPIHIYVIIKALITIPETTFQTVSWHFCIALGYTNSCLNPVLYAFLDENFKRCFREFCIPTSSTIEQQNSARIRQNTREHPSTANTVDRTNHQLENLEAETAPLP
ASSAY METRIC: pKd

INSERT INTO measurements (cpd_smiles, readout_value) VALUES
  ('Cl.O=C(/C=C/c1ccco1)N[C@H]1CC[C@@]2(O)[C@H]3Cc4cccc5c4[C@@]2(CCN3CC2CC2)[C@H]1O5', 6.97),
  ('CN(C(=O)CCc1ccco1)[C@H]1CC[C@@]2(O)[C@H]3Cc4ccc(O)c5c4[C@@]2(CCN3CC2CC2)[C@H]1O5.Cl', 9.82),
  ('Cl.O=C(CCc1ccoc1)N[C@@H]1CC[C@@]2(O)[C@H]3Cc4ccc(O)c5c4[C@@]2(CCN3CC2CC2)[C@H]1O5', 9.68),
  ('CN(C(=O)/C=C/c1ccco1)[C@@H]1CC[C@@]2(O)[C@H]3Cc4ccc(O)c5c4[C@@]2(CCN3CC2CC2)[C@H]1O5.Cl', 9.11),
  ('CN(C(=O)CCc1ccoc1)[C@@H]1CC[C@@]2(O)[C@H]3Cc4cccc5c4[C@@]2(CCN3CC2CC2)[C@H]1O5.Cl', 7.36),
  ('CN(C(=O)CCc1ccoc1)[C@H]1CC[C@@]2(O)[C@H]3Cc4ccc(O)c5c4[C@@]2(CCN3CC2CC2)[C@H]1O5.Cl', 9.74),
  ('CN(C(=O)CCc1ccco1)[C@H]1CC[C@@]2(O)[C@H]3Cc4cccc5c4[C@@]2(CCN3CC2CC2)[C@H]1O5.Cl', 7.85),
  ('CN(C(=O)CCc1ccco1)[C@@H]1CC[C@@]2(O)[C@H]3Cc4cccc5c4[C@@]2(CCN3CC2CC2)[C@H]1O5.Cl', 7.03),
  ('Cl.O=C(CCc1ccco1)N[C@H]1CC[C@@]2(O)[C@H]3Cc4cccc5c4[C@@]2(CCN3CC2CC2)[C@H]1O5', 7.28),
  ('CN(C(=O)/C=C/c1ccco1)[C@H]1CC[C@@]2(O)[C@H]3Cc4ccc(O)c5c4[C@@]2(CCN3CC2CC2)[C@H]1O5.Cl', 9.70),
  ('Cl.O=C(CCc1ccoc1)N[C@H]1CC[C@@]2(O)[C@H]3Cc4ccc(O)c5c4[C@@]2(CCN3CC2CC2)[C@H]1O5', 9.36),
  ('CN(C(=O)CCc1ccoc1)[C@@H]1CC[C@@]2(O)[C@H]3Cc4ccc(O)c5c4[C@@]2(CCN3CC2CC2)[C@H]1O5.Cl', 9.28),
  ('CN(C(=O)CCc1ccco1)[C@@H]1CC[C@@]2(O)[C@H]3Cc4ccc(O)c5c4[C@@]2(CCN3CC2CC2)[C@H]1O5.Cl', 9.18),
  ('Cl.O=C(CCc1ccco1)N[C@@H]1CC[C@@]2(O)[C@H]3Cc4ccc(O)c5c4[C@@]2(CCN3CC2CC2)[C@H]1O5', 9.55),
  ('Cl.O=C(CCc1ccoc1)N[C@H]1CC[C@@]2(O)[C@H]3Cc4cccc5c4[C@@]2(CCN3CC2CC2)[C@H]1O5', 7.26),
  ('Cl.O=C(/C=C/c1ccco1)N[C@@H]1CC[C@@]2(O)[C@H]3Cc4cccc5c4[C@@]2(CCN3CC2CC2)[C@H]1O5', 7.37),
  ('CN(C(=O)CCc1ccoc1)[C@H]1CC[C@@]2(O)[C@H]3Cc4cccc5c4[C@@]2(CCN3CC2CC2)[C@H]1O5.Cl', 8.11);
